Catalogue of compounds with associated growth
tested on: HCT-15 colon; test: NCI-60 one-dose screen, 48 h (100 = growth as untreated, 0 = no growth, -100 = all killed); conditions: 10 µM unless noted
About 83,000 compounds went through this panel and 20% of them were active in at least one assay; those are over-represented in the sample as a whole.
Please state the figure in %; there is no need to write the unit.

Below are worked cases with known answers.
compound: CN(C)CCCn1c2c(c3cc(-c4ccco4)ccc3c1=O)C(=O)c1ccccc1-2
experimental.system: HCT-15 colon
measured: 54.4
//
compound: N#CC1C(c2ccc(Cl)cc2)=Nc2c(c(-c3ccccc3)nn2-c2ccccc2)C12C(=O)Nc1ccc(Cl)cc12 (stereo not drawn)
experimental.system: HCT-15 colon
measured: 20.5

Query: Name the recorded growth for [2H]c1cc2c(c([2H])c1F)/C(=C/c1[nH]c(C)c(C(=O)NCCN(CC)CC)c1C)C(=O)N2 .
Result: 29.9

Query: Name the recorded growth for Cc1c(Cl)cccc1NC(=O)c1sc2nc3c(cc2c1N)CCCCC3 .
Result: 30.1
